test system: SK-OV-3; test: Antiproliferative activity against human SK-OV-3 cells assessed as inhibition of cell proliferation incubated for 3 to 7 days followed by replacement of medium containing compound every 3 days by CCK8 assay; type: functional, cell-based
pIC50: −log10 of the molar value.
assayReadout: pIC50

compound	measuredOn	numericValue
CC1=C(CC(=O)NCCc2c[nH]c3ccccc23)C(=O)OC2C(O)=C(O)C=CC12 (configuration not stated)	SK-OV-3	5.10
CC[C@H](C)n1cc(C)c2c(C(=O)NCc3c(C)cc(C)[nH]c3=O)cc(-c3ccc(N4CCNCC4)nc3)cc21 [GSK2816126]	SK-OV-3	4.98

###

assay: Binding affinity to PRC2 (unknown origin) assessed as inhibition constant; parameters: species or system Homo sapiens

structureNotation	units	Ki
Cc1cc(C)c(CNC(=O)c2cc(-c3ccc(CN4CCOCC4)cc3)cc3c2cnn3C2CCCC2)c(=O)[nH]1	nM	24

###

assay: Inhibition of N-terminal 6xHis SUMO-tagged human EED expressed in Escherichia coli BL21 (DE3)/FITC-labeled EZH2 (39 to 63 residues)(unknown origin) interaction incubated for 2 hrs by fluorescence polarization based competitive assay

compound	IC50
Cc1sc(NC(=O)CCCCC(=O)Nc2sc(C)c(C)c2C(N)=O)c(C(N)=O)c1C	54.9 µM
Cc1ccc(C(C2=C(O)CC(C)(C)CC2=O)C2C(=O)CC(C)(C)CC2=O)s1 (configuration not stated)	63.9 µM

###

Overview of reported IC50 across a group of molecules:
biological target: Histone-lysine N-methyltransferase EZH2 (Homo sapiens, UniProt Q15910); assay: Displacement of [3H-SAM] from EZH2 in PRC2 complex (unknown origin) incubated for 1 hr by […] assay
Sequence (Q15910 whole entry): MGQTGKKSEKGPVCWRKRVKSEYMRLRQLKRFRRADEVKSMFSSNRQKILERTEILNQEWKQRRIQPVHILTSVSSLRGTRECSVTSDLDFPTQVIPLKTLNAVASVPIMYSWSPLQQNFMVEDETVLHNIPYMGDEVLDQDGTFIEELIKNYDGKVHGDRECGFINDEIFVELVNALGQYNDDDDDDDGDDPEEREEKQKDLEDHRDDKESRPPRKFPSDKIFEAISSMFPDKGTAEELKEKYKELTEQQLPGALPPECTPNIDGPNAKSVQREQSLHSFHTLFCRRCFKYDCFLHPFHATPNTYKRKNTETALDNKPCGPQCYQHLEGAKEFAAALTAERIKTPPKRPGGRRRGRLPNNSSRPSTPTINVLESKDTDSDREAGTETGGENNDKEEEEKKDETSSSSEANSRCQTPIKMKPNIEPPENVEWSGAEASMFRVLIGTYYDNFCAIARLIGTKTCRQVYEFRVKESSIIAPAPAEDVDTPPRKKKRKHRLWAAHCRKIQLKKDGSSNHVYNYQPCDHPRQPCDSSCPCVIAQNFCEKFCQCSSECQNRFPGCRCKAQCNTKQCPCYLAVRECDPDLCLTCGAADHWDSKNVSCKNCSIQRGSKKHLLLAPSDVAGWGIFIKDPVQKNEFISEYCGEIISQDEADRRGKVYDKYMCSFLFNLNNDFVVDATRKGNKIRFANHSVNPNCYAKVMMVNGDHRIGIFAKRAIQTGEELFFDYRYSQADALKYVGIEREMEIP
assayReadout: IC50

structureNotation	measuredOn	assayReadout	result
Cc1cc(C)c(CNC(=O)c2cc(C)n(-c3cccc(N4CCOCC4)c3)c2C)c(=O)[nH]1	Histone-lysine N-methyltransferase EZH2 (Homo sapiens, UniProt Q15910)	IC50	4.06 µM
Cc1cc(C)c(CNC(=O)c2cc(C)n(-c3cccc(N4CCCCC4)c3)c2C)c(=O)[nH]1	Histone-lysine N-methyltransferase EZH2 (Homo sapiens, UniProt Q15910)	IC50	1.06 µM

###

target: Histone-lysine N-methyltransferase EZH2 (Homo sapiens, UniProt Q15910); experiment: Inhibition of wild-type EZH2 in PRC2 complex (unknown origin) using monomethylated H3K27 as substrate by radiometric assay
pIC50: −log10 of the molar value.

structureNotation	pIC50
COc1cc(C)[nH]c(=O)c1CNC(=O)c1cccc2c1cc(C)n2[C@H](C)C1CCOCC1	9.30

###

assay: Solubility of the compound in water; format: physicochemical; conditions: water; read-out: solubility

structureNotation	units	solubility
CCN(c1cc(-c2ccc(CN3CCN(C)CC3)cc2)cc(C(=O)NCc2c3c(c(C)[nH]c2=O)CCCC3)c1C)C1CCOCC1	µg/mL	3
